Listed here are compounds together with their documented logD.
test_description: Lipophilicity, log D of the compound at pH 7.4
Format: physicochemical
condition_label: buffer
No unit in the answer, only the number.

Solved entries:
COc1cc2ncnc(Nc3cccc(Cl)c3F)c2cc1Oc1ccnc(/C=C/CN2CCOCC2)c1    3.8
COC/C=C/c1cc(Oc2cc3c(Nc4cccc(Cl)c4F)ncnc3cc2OC)ccn1    4.2

Input line: Suppose we examine the compound C=Cc1ccnc(Oc2cc3c(Nc4cccc(Cl)c4F)ncnc3cc2OC)c1 ; what logD value has been reported?
Output line: 4.6

Input line: Item: C=C(C)c1cc(Oc2cc3c(Nc4cccc(Cl)c4F)ncnc3cc2OC)ccn1
Output line: 4.6

Input line: Item: C=Cc1cccc(Oc2cc3c(Nc4cccc(Cl)c4F)ncnc3cc2OC)n1
Output line: 4.6

Input line: Item: COc1cc2ncnc(Nc3ccc(F)c(Cl)c3)c2cc1OCCCN1CCOCC1 [GEFITINIB]
Output line: 3.8

Input line: Item: C=CC(=O)N1CCC(Oc2cc3c(Nc4ccc(Cl)c(Cl)c4F)ncnc3cc2OC)CC1 [POZIOTINIB]
Output line: 4.3

Input line: Item: CN(C)C/C=C/C(=O)Nc1cc2c(Nc3ccc(F)c(Cl)c3)ncnc2cc1O[C@H]1CCOC1 [AFATINIB]
Output line: 3.6
